List of pIC50 values.
TARGET OR TEST SYSTEM: viral kinase UL-97 (Human cytomegalovirus, UniProt P16788)
Construct: The UL-97 gene was cloned into a baculovirus vector in order to produce GST (glutathione S-transferase) fusion protein; GST; made in house; host or cells: Sf9 insect cells (baculovirus)
Sequence (P16788 whole entry, the tested form may be a part): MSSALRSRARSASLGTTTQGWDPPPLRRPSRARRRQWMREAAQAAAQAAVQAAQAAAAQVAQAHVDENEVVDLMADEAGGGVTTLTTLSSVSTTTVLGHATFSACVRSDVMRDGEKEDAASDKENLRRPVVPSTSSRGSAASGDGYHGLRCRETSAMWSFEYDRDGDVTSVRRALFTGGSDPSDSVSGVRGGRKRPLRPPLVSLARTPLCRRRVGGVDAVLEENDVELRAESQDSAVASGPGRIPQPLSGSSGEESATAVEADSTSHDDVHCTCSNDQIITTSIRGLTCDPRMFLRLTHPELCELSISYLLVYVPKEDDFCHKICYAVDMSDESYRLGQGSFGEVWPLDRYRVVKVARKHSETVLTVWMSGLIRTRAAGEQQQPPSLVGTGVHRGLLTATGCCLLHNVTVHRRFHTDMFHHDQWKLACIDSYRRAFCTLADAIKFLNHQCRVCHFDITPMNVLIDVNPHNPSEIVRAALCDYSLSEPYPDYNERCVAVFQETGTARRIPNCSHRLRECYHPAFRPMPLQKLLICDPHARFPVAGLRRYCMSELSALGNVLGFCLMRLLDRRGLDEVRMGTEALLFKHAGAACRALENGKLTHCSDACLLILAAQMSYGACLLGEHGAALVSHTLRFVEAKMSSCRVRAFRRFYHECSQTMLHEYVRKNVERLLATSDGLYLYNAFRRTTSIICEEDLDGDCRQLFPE
ASSAY DETAILS: UL97 Kinase-Assay on Immobilon Plate
Format: biochemical
MEASUREMENT CONTEXT: 3 μM ATP, MBP substrate; read-out: UL 97 IC 50
Please express pIC50 as -log10 of the molar concentration.

Data request, read-out pIC50, for `Clc1cccc(Nc2ncnc3ccccc23)c1`
6.15

* * *

Tested on: HCMV reference strain AD 169
ASSAY DETAILS: Plaque reduction assay, HCMV AD 169 in HFFs
Type: cell-based, Human Cytomegalovirus (HCMV)
MEASUREMENT CONTEXT: Human betaherpesvirus 5, 192 h; HCMV AD 169, HFFs, eight days postinfection; read-out: IC50 in the plaque reduction assay
Here, each record is paired with measured IC50 data.

COMPOUND | TARGET OR TEST SYSTEM | REPORTED MEASUREMENT
Clc1ccc(Nc2ncnc3ccccc23)cc1Cl [Compound 37] | HCMV reference strain AD 169 | 2.5 to 5 µM
Brc1ccc(Nc2ncnc3ccccc23)cc1 [Compound 98, (4-Bromo-phenyl)-quinazolin-4-yl-amine] | HCMV reference strain AD 169 | 2.5 to 5 µM

Switching to the query record.
Checklist item: IC50 tested on HCMV reference strain AD 169, entry Nc1nc(O)c2ncn(COC(CO)CO)c2n1 [ganciclovir] , value?
4 to 6 µM

* * *

Item-by-item account of IC50
TARGET OR TEST SYSTEM: viral kinase UL-97 (Human cytomegalovirus)
Construct: The UL-97 gene was cloned into a baculovirus vector in order to produce GST (glutathione S-transferase) fusion protein; GST; made in house; host or cells: Sf9 insect cells (baculovirus)
ASSAY DETAILS: UL97 Kinase-Assay on Immobilon Plate
Type: biochemical
MEASUREMENT CONTEXT: 3 μM ATP, MBP substrate; read-out: UL 97 IC 50

CPD SMILES | REPORTED MEASUREMENT
Clc1ccc(Nc2ncnc3ccccc23)cc1Cl | 40 nM

Which IC50 reading was recorded for the molecule `Cc1ccc2ncnc(Nc3ccc(Br)cc3)c2c1` ?
> 100 nM

Returns the measured IC50 for the input molecule. Input: `Fc1ccc(Nc2ncnc3ccccc23)cc1`
200 nM

* * *

pIC50 reference
TARGET OR TEST SYSTEM: viral kinase UL-97 (Human cytomegalovirus, UniProt P16788)
Construct: The UL-97 gene was cloned into a baculovirus vector in order to produce GST (glutathione S-transferase) fusion protein; GST; made in house; host or cells: Sf9 insect cells (baculovirus)
ASSAY DETAILS: UL97 Kinase-Assay on Immobilon Plate
Type: biochemical
MEASUREMENT CONTEXT: 3 μM ATP, MBP substrate; read-out: UL 97 IC 50
Schema: pIC50 number; meaning minus log10 of the concentration expressed in molar units.

Below are worked cases with known answers.
MOLECULE | pIC50
Brc1ccc(Nc2ncnc3ccccc23)cc1 [Compound 98, (4-Bromo-phenyl)-quinazolin-4-yl-amine] | 6.77
Cc1ccc2ncnc(Nc3ccc(Cl)c(Cl)c3)c2c1 [Compound 49] | 7.70
Ic1ccc(Nc2ncnc3ccccc23)cc1 [Compound 72, (4-lodo-phenyl)-quinazolin-4-yl-amine] | 6.70

In the following, a different molecule is considered.
Can you share its pIC50? I mean this molecule: COc1cc2ncnc(Nc3ccc(Br)cc3)c2cc1OC [Compound 31]
5.92

From: patent US20070123537A1
